Entries and their inhibition at 2.5 µg/mL
- Test system: Plasmodium falciparum
- test_name: Antimalarial schizonticidal activity against Plasmodium falciparum 3D7 infected erythrocytes at 2.5 ug/ml after 30-39 hrs
- Format: functional
metric: inhibition at 2.5 µg/mL (%)

{"columns": ["compound", "metric", "readout_unit", "value_measured"],
 "data": [
  ["COC(=O)C1=C(Nc2ccccc2)CC(c2ccc(OC)cc2)N(c2ccccc2)C1c1ccc(OC)cc1 (stereo not given)", "inhibition at 2.5 µg/mL", "%", 100],
  ["CCOC(=O)C1=C(Nc2ccc(Cl)cc2)CC(c2cccs2)N(c2ccc(Cl)cc2)C1c1cccs1 (stereo not given)", "inhibition at 2.5 µg/mL", "%", 93],
  ["COC(=O)C1=C(Nc2ccc(Cl)cc2)CC(c2ccc(Br)cc2)N(c2ccc(Cl)cc2)C1c1ccc(Br)cc1 (stereo not given)", "inhibition at 2.5 µg/mL", "%", 0],
  ["COC(=O)C1=C(Nc2ccc(Cl)cc2)CC(c2ccc(F)cc2)N(c2ccc(Cl)cc2)C1c1ccc(F)cc1 (stereo not given)", "inhibition at 2.5 µg/mL", "%", 100],
  ["COC(=O)C1=C(Nc2ccc(OC)cc2)CC(c2ccc(Br)cc2)N(c2ccc(OC)cc2)C1c1ccc(Br)cc1 (stereo not given)", "inhibition at 2.5 µg/mL", "%", 95]
]}
